Recorded koff, one value per entry.
measurement-target: T1, recombinant human FGF23 (R179Q) (human, UniProt Q9GZV9 25-251)
T1 construct: also called rhFGF23(R179Q); hFGF23(R179Q)
T1 sequence (looked up): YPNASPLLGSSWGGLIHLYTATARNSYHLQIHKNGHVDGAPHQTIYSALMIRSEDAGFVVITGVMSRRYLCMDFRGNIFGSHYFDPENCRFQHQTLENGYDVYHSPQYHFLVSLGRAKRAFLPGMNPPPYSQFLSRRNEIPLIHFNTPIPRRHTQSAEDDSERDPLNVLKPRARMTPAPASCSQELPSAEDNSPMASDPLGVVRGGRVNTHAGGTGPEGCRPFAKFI
assay-text: SPR, antibody captured on hIgG chip, rhFGF23(R179Q) analyte
Answer format: numeric, s⁻¹ implied, no suffix.

# binder, koff [s⁻¹]
rows = [
    ("Burosumab (antibody, human IgG1, kappa, V domains shown, Recombinant human IgG1 kappa; also called burosumab-twza; parental burosumab) VH: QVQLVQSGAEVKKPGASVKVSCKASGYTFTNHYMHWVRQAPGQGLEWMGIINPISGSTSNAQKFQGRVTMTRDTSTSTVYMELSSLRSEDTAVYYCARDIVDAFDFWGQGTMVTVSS VL: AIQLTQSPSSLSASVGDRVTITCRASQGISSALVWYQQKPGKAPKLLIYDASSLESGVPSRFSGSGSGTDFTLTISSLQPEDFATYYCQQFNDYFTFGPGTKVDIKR", 0.000157),
    ("UGX202 (antibody, human IgG1, kappa, V domains shown, also called HC:S59E, LC:N92Y; S59E/N92Y) VH: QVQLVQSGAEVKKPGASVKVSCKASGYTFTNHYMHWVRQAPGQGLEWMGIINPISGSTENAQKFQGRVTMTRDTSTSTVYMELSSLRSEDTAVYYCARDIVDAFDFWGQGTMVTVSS VL: AIQLTQSPSSLSASVGDRVTITCRASQGISSALVWYQQKPGKAPKLLIYDASSLESGVPSRFSGSGSGTDFTLTISSLQPEDFATYYCQQFYDYFTFGPGTKVDIKR", "9.8e-05"),
]

Attention now turns to another entry.
I'd like to know its koff. The binder in question is UGX203 (antibody, human IgG1, kappa, V domains shown, also called HC:S59E, LC:S52D; S59E/S52D) VH: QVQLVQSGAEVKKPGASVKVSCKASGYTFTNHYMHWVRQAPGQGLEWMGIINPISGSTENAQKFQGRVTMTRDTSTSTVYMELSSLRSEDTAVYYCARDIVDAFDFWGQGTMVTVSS VL: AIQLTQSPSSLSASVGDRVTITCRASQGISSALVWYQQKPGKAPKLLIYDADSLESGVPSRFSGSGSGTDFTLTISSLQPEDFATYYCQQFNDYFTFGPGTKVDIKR
0.000145
